The reported numbers originate from patent US6737383B1.

system: soybean; experiment: Test B pre/postemergence soybean; format: in vivo, Glycine max; details: Preemergence, Rate 500 g/ha; scale of 0 to 10 where 0 is no effect and 10 is complete control
What Soybean plant response rating was measured for each of the following?
Give bare numbers.

> print(dat)
                                   compound              quantity.measured  numeric.value
1  CC(C)N(C(=O)n1oc(=O)n(C2CCCCCC2)c1=O)c1ccccc1  Soybean plant response rating              0
2  CC(=O)OCCCCn1c(=O)on(C(=O)N(c2ccccc2)C(C)C)c1=O  Soybean plant response rating              0
3  Cc1ccccc1-n1c(=O)on(C(=O)N(c2ccncc2)C(C)C)c1=O  Soybean plant response rating              0

Quick request: Soybean plant response rating for each listed item, please.
1. CC(C)=CCn1c(=O)on(C(=O)N(c2ccccc2)C(C)C)c1=O
2. CC(C)N(C(=O)n1oc(=O)n(C(C)C(=O)c2ccccc2)c1=O)c1ccc(Cl)cc1 (centres unmarked)

1. 0
2. 0

###

Assignment: determine reported Giant foxtail plant response rating for the given compounds.
tested on: giant foxtail; test: Test B pre/postemergence giant foxtail; assay type: in vivo, Setaria faberii; settings: Postemergence, Rate 250 g/ha; scale 0 to 10, 0 no effect, 10 complete control
Answers are plain numbers.

> print(dat)
                                     smiles  experimental.system                    quantity.measured  numeric.value
1  CC(C)N(C(=O)n1oc(=O)n(-c2ccccc2Cl)c1=O)c1ccc(F)cc1        giant foxtail  Giant foxtail plant response rating              0
2  COc1ccc(N(C(=O)n2oc(=O)n(-c3ccccc3C)c2=O)C(C)C)cc1        giant foxtail  Giant foxtail plant response rating              9

# batch size: 2; output Giant foxtail plant response rating per entry
1. CC(C)N(C(=O)n1oc(=O)n(-c2cnn(C)c2)c1=O)c1ccc(F)cc1
2. CCN(C(=O)n1oc(=O)n(Cc2cccs2)c1=O)C1CCCCC1

[2, 0]

###

tested on: giant foxtail; test: Test B pre/postemergence giant foxtail; assay type: in vivo, Setaria faberii; conditions: Rate 62 g/ha, Postemergence; scale of 0 to 10 where 0 is no effect and 10 is complete control
quantity_measured: Giant foxtail plant response rating
Answers are plain numbers.

> print(dat)
                                   compound                    quantity.measured  numeric.value
1  CCOC(=O)Cn1c(=O)on(C(=O)N(c2ccc(F)cc2)C(C)C)c1=O [Compound 128]  Giant foxtail plant response rating              0

I'm hoping you can list Giant foxtail plant response rating for every compound here, please.
1. CC(C)N(C(=O)n1oc(=O)n(C2(C)CC2)c1=O)c1ccccc1 [Compound 360]
2. CC(C)N(C(=O)n1oc(=O)n([C@@H]2C[C@H]2C)c1=O)c1ccc(F)cc1 (relative stereo) [Compound 392]
3. CC(C)N(C(=O)n1oc(=O)n([C@H](C)c2ccccc2)c1=O)c1ccc(Cl)cc1 [Compound 178]

1: 8; 2: 7; 3: 0

###

Please respond with reported Plant response rating, Blackgrass for every item in the list.
tested on: blackgrass; test: Test B pre/postemergence blackgrass; assay type: in vivo, Alopecurus myosuroides; conditions: Preemergence, Rate 125 g/ha; scale of 0 to 10 where 0 is no effect and 10 is complete control
Give bare numbers.

> print(dat)
                                   molecule  experimental.system                  quantity.measured  numeric.value
1  COC(=O)C(CCO)n1c(=O)on(C(=O)N(c2ccccc2)C(C)C)c1=O (stereo not shown) [Compound 678]           blackgrass  Plant response rating, Blackgrass              0
2  CC(C)N(C(=O)n1oc(=O)n(C(C)C2CC2)c1=O)c1ccc(F)cc1F (stereo not shown) [Compound 720]           blackgrass  Plant response rating, Blackgrass              9
3  CC(C)N(C(=O)n1oc(=O)n(C)c1=O)c1ccccc1 [Compound 409]           blackgrass  Plant response rating, Blackgrass              7

API: the following record is the query input.
Return Plant response rating, Blackgrass (reported value) for this molecule: CC(C)N(C(=O)n1oc(=O)n(CCl)c1=O)c1ccc(Cl)cc1 [Compound 422]
0
